Assay: Cytotoxicity against mouse macrophages assessed as cell viability at 1 uM after 18 hrs by MTT assay
Type: cell-based, Macrophage
Conditions: read-out: Activity

molecule: FC(F)(F)c1cc([C@@H]2OC(c3cccc(Cl)c3Cl)N3CCCC[C@H]23)c2cccc(C(F)(F)F)c2n1 (mixture of isomers)
viability at 18 h, 1 µM: 100%
--
molecule: FC(F)(F)c1cc([C@@H]2OC(c3ccc(Cl)cc3Cl)N3CCCC[C@H]23)c2cccc(C(F)(F)F)c2n1 (mixture of isomers)
viability at 18 h, 1 µM: 100%
--
molecule: COc1cc(C2O[C@@H](c3cc(C(F)(F)F)nc4c(C(F)(F)F)cccc34)[C@H]3CCCCN23)cc(OC)c1OC (mixture of isomers)
viability at 18 h, 1 µM: 100%
--
molecule: OC(c1cc(C(F)(F)F)nc2c(C(F)(F)F)cccc12)C1CCCCN1 (stereo unspecified)
viability at 18 h, 1 µM: 95%
--
molecule: FC(F)(F)c1cc([C@@H]2OC(c3ncc[nH]3)N3CCCC[C@H]23)c2cccc(C(F)(F)F)c2n1 (mixture of isomers)
viability at 18 h, 1 µM: 100%
--
molecule: CCOc1cccc(C2O[C@@H](c3cc(C(F)(F)F)nc4c(C(F)(F)F)cccc34)[C@H]3CCCCN23)c1 (mixture of isomers)
viability at 18 h, 1 µM: 100%
--
molecule: O=[N+]([O-])c1ccc(C2O[C@@H](c3cc(C(F)(F)F)nc4c(C(F)(F)F)cccc34)[C@H]3CCCCN23)o1 (mixture of isomers)
viability at 18 h, 1 µM: 100%
--
molecule: COc1cccc(C2O[C@@H](c3cc(C(F)(F)F)nc4c(C(F)(F)F)cccc34)[C@H]3CCCCN23)c1OC (mixture of isomers)
viability at 18 h, 1 µM: 100%
--
molecule: O=[N+]([O-])c1ccc(C2O[C@@H](c3cc(C(F)(F)F)nc4c(C(F)(F)F)cccc34)[C@H]3CCCCN23)s1 (mixture of isomers)
viability at 18 h, 1 µM: 100%
--
molecule: FC(F)(F)c1cc([C@@H]2OC(c3ccc(Cl)c(Cl)c3)N3CCCC[C@H]23)c2cccc(C(F)(F)F)c2n1 (mixture of isomers)
viability at 18 h, 1 µM: 100%
--
molecule: FC(F)(F)c1cc([C@@H]2OC(c3c(Cl)cccc3Cl)N3CCCC[C@H]23)c2cccc(C(F)(F)F)c2n1 (mixture of isomers)
viability at 18 h, 1 µM: 93%
